Reference source for all entries: patent US20110142868A1

Target: recombinant human PAD4 (human, UniProt Q9UM07 1-663)
Sequence (Q9UM07 whole entry): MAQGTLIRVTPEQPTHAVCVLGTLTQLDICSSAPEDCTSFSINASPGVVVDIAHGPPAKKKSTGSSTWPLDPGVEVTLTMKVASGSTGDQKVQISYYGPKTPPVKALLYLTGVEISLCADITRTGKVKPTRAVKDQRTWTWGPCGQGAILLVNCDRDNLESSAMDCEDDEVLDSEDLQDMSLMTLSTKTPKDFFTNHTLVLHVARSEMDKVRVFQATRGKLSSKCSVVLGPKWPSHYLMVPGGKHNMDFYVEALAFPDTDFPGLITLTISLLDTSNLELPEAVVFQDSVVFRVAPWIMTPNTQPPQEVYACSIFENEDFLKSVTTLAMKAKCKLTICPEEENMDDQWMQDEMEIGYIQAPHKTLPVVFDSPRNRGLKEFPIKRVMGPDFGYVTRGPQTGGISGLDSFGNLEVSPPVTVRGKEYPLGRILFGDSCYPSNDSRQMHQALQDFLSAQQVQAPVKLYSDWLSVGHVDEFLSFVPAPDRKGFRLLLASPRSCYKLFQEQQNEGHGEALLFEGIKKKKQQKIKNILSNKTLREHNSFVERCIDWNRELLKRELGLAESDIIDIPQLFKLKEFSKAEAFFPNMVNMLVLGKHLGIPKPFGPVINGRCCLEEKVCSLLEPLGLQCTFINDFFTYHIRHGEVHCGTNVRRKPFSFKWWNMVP
Experiment: cell-based or functional assay
Square brackets hold non-standard residues; d marks the D form. Orn(fluoroacetimidoyl) = N=C(CF)NCCC[C@H](N)C(=O)O; AEEA = NCCOCCOCC(=O)O
EXPERIMENTAL READOUT: Inhibition of PAD4: value at 80 µM inhibitor (0 µM: 71) (%)

{"BINDER": "Ac-KFD[Orn(fluoroacetimidoyl)]DFI[AEEA]-NH2 (SMILES CC[C@H](C)[C@H](NC(=O)[C@H](Cc1ccccc1)NC(=O)[C@H](CC(=O)O)NC(=O)[C@H](CCCNC(=N)CF)NC(=O)[C@H](CC(=O)O)NC(=O)[C@H](Cc1ccccc1)NC(=O)[C@H](CCCCN)NC(C)=O)C(=O)NCCOCCOCC(N)=O) [0837-13FA]", "RESULT": 16}
